experiment: Tmax in mouse at 10 mg/kg, sc measured upto 24 hrs by LC-MS/MS analysis; assay type: ADME, organism-based; settings: in vivo
Numbered stars: 1 amine (or outer) side, 2 acyl side, 3 side chain; on linkers, the order of the positions; unused ones are H or OH. Square brackets hold non-standard residues; d marks the D form. Peptide text beside a SMILES is read from it. Nva(5-(4-Bn-piperidin-1-yl)) = N[C@@H](CCCN1CCC(Cc2ccccc2)CC1)C(=O)O; X1 = O=C1[C@@H](N[*:1])Cc2ccccc2CN1CCC(=O)[*:2]; Dmt = Cc1cc(O)cc(C)c1C[C@H](N)C(=O)O
Measured Endpoint: Tmax (h)
Write the number in h without appending the unit.

// solved cases for Tmax follow
* Cc1cc(O)cc(C)c1C[C@H](N)C(=O)N[C@H](CCCNC(=N)N)C(=O)N[C@H]1Cc2ccccc2CN(CCC(=O)N[C@@H](CCCN2CCC(Cc3ccccc3)CC2)C(=O)N[C@@H](Cc2ccccc2)C(N)=O)C1=O | 2.67
* Cc1cc(O)cc(C)c1C[C@H](N)C(=O)N1CCC[C@@H]1C(=O)N[C@H]1Cc2ccccc2CN(CCC(=O)N[C@@H](CCCN2CCC(Cc3ccccc3)CC2)C(=O)N[C@@H](Cc2ccccc2)C(N)=O)C1=O (H-[Dmt][dP][X1][Nva(5-(4-Bn-piperidin-1-yl))]F-NH2) | 0.139
* Cc1cc(O)cc(C)c1C[C@H](N)C(=O)N(C)[C@H](C)C(=O)N[C@H]1Cc2c(ccc3ccccc23)CN(CCC(=O)N[C@@H](CCCN2CCC(Cc3ccccc3)CC2)C(=O)N[C@@H](Cc2ccccc2)C(N)=O)C1=O | 2.33

Documented Tmax of `Cc1cc(O)cc(C)c1C[C@H](NC(=N)N)C(=O)N[C@H](CCCNC(=N)N)C(=O)N[C@H]1Cc2ccccc2CN(CCC(=O)N[C@@H](CCCN2CCC(Cc3ccccc3)CC2)C(=O)N[C@@H](Cc2ccccc2)C(N)=O)C1=O` : 1.67

According to the records, this molecule `Cc1cc(O)cc(C)c1C[C@H](N)C(=O)N(C)[C@H](C)C(=O)N[C@H]1Cc2c(ccc3ccccc23)CN(CC(=O)N[C@@H](CCCN2CCC(Cc3ccccc3)CC2)C(=O)N[C@@H](Cc2ccccc2)C(N)=O)C1=O` displays Tmax of 1.83
